These records show pIC50 for PDGFR-β (Homo sapiens (Human), UniProt P09619).
Give bare numbers, as −log10 of the molar value.

[[record]]
cpd_smiles = "Cc1ccc(C(=O)N[C@H]2CCCC[C@@H]2O)cc1NCc1ccc(NC(=O)Nc2cccnc2)nc1"
target_or_test_system = "PDGFR-β (Homo sapiens (Human), UniProt P09619)"
val = 7.77

[[record]]
cpd_smiles = "Cc1ccc(C(=O)N[C@H]2CCCC[C@@H]2O)cc1NC(=O)c1cncc(-c2ccccc2F)c1"
target_or_test_system = "PDGFR-β (Homo sapiens (Human), UniProt P09619)"
val = 7.46

[[record]]
cpd_smiles = "Cc1ccc(C(=O)N[C@H]2CCCC[C@@H]2O)cc1NCc1cncc(-c2ccccc2)c1"
target_or_test_system = "PDGFR-β (Homo sapiens (Human), UniProt P09619)"
val = 7.34

[[record]]
cpd_smiles = "Cc1c(F)cc(C(=O)N[C@H]2CCCC[C@@H]2O)cc1NC(=O)c1cncc(OCC2CC2)c1"
target_or_test_system = "PDGFR-β (Homo sapiens (Human), UniProt P09619)"
val = 7.11

[[record]]
cpd_smiles = "Cc1ccc(C(=O)N[C@H]2CCCC[C@@H]2O)cc1CNc1cncc(-c2ccccn2)c1"
target_or_test_system = "PDGFR-β (Homo sapiens (Human), UniProt P09619)"
val = 7.80

[[record]]
cpd_smiles = "Cc1ccc(C(=O)N[C@H]2CCCC[C@@H]2O)cc1NCc1ccc(-c2ccccn2)nc1"
target_or_test_system = "PDGFR-β (Homo sapiens (Human), UniProt P09619)"
val = 6.41

[[record]]
cpd_smiles = "O=C(N[C@H]1CCCC[C@@H]1O)c1cccc(CNc2cncc(-c3ncccn3)c2)c1"
target_or_test_system = "PDGFR-β (Homo sapiens (Human), UniProt P09619)"
val = 6.44

[[record]]
cpd_smiles = "Cc1ccc(C(=O)N[C@H]2CCCC[C@@H]2O)cc1NCc1ccc(NC(=O)C2CC2)nc1"
target_or_test_system = "PDGFR-β (Homo sapiens (Human), UniProt P09619)"
val = 7.70


For the 7 compounds below, give their pIC50 values.
1. Cc1ncc(C(=O)N[C@H]2CCCC[C@@H]2O)cc1C#Cc1cncc(C2CC2)c1
2. Cc1ccc(C(=O)N[C@H]2CCCC[C@@H]2O)cc1NC(=O)c1cncc(Oc2ncccn2)c1
3. Cc1ccc(C(=O)N[C@H]2CCCC[C@@H]2O)cc1C#Cc1cncc(-c2cccc(F)c2)n1
4. Cc1ccc(C(=O)N[C@H]2CCCC[C@@H]2O)cc1NCc1cnc2c(c1)OCCN2
5. Cc1ccc(CNc2cncc(-c3ncccn3)c2)cc1NC(=O)N[C@@H]1CCCC[C@@H]1O
6. Cc1ccc(C(=O)N[C@H]2CCCC[C@@H]2O)cc1/C=C/c1cncc(-c2ccccc2)c1
7. Cc1ccc(C(=O)N[C@@H](CO)[C@@H](O)c2ccccc2)cc1CNc1cncc(-c2ccccn2)c1

Response line:
1. 6.66
2. 7.11
3. 7.70
4. 7.19
5. 6.59
6. 7.27
7. 7.44

Prompt line: Bench note: what pIC50 did O=C(N[C@H]1CCCC[C@@H]1O)c1ccc(Cl)c(C#Cc2cncc(Br)c2)c1 show?
Response line: 7.29
